The measurements presented in this section are drawn from ChEMBL document CHEMBL1201862.

# System: NCI/ADR-RES
# protocol: NCI tumour cell line growth inhibition, 48 h
The source made the active and inactive calls. Rule as the data show it: active = GI50 up to about 1.1 µM and inactive = higher. Square brackets hold non-standard residues; d marks the D form. Peptide text beside a SMILES is read from it. ξ: configuration not given here. ξ2Thi = NC(Cc1cccs1)C(=O)O; ξR = N=C(N)NCCCC(N)C(=O)O; ξI = CCC(C)C(N)C(=O)O; ξL = CC(C)CC(N)C(=O)O; ξK = NCCCCC(N)C(=O)O; ξT = CC(O)C(N)C(=O)O; ξA = CC(N)C(=O)O
quantity-measured: GI50

Before answering, review these 3 worked examples.
>>> measured("CCC(CON(C)c1ccccc1)(SC)SC")
"> 100 µM (inactive)"
>>> measured("COc1cccc(C2c3cc4c(cc3OC(C)(N3CCCC3)C2C)OCO4)c1OC (centres undefined)")
"7.46 µM (inactive)"
>>> measured("CCC(C)C(NC(=O)C(Cc1cccs1)NC(=O)C(CC(C)C)NC(=O)C(CC(C)C)NC(=O)C(CCCCN)NC(=O)C(CCCN=C(N)N)NC(=O)[C@H](Cc1ccc(O)cc1)NC(=O)C(NC(=O)C(C)NC(=O)C(N)CC(C)C)C(C)O)C(=O)NC(CC(C)C)C(N)=O (some centres undefined) (H-[ξL][ξA][ξT]Y[ξR][ξK][ξL][ξL][ξ2Thi][ξI][ξL]-NH2)")
"> 50 µM (inactive)"

Ask | Any idea what GI50 was measured for O=C1CC2OCC=C3CN4CCC56c7ccccc7N1C5C2C3CC46O (centres undefined) ?
Reply | > 100 µM (inactive)

Ask | Which GI50 is reported for this compound? COc1ccc(NC2C(=O)C3(C)CCC2C3(C)C)cc1 (centres undefined)
Reply | > 100 µM (inactive)

Ask | Name the recorded GI50 for `N#C[BH2-][n+]1ccc(C(=O)NNCC(F)(F)F)cc1` .
Reply | > 100 µM (inactive)

Ask | Entry under review: `CC(C)(C)c1ccc(-c2nc3ccc([N+](=O)[O-])cc3c(=O)o2)cc1` . Reported GI50?
Reply | 25.4 µM (inactive)
